- EXPERIMENT_NOTES: Ratio of heart to liver uptake after 5 min was determined in female Fischer rats after [125I]-labeled compound complexed with bovine serum albumin was injected intravenously
- Assay type: functional
MEASURE_NAME: Ratio
Lab note: record the figure alone, no unit after it.

For record O=C(O)CCC[Te]CCCCCCCCCCC/C=C/I the listed Ratio is 0.6

For record O=C(O)CCCCCCCCCCC[Te]CCC/C=C/I the listed Ratio is 0.17

For record O=C(O)CCCCCCC[Te]CCCCCCC/C=C/I the listed Ratio is 0.75

For record O=C(O)CCCCCCCCC[Te]CCCCC/C=C/I the listed Ratio is 0.37

For record O=C(O)CCCCC[Te]CCCCCCCCC/C=C/I the listed Ratio is 0.56

----------
- EXPERIMENT_NOTES: Ratio of heart to kidneys uptake after 120 min was determined in female Fischer rats after [125I]-labeled compound complexed with bovine serum albumin was injected intravenously
- Format: functional, Heart/Kidney
Lab note: anything with Ratio at or over 3 counts as 1; the rest go in -1.

Tell me whether Ratio is at least 3 here: O=C(O)CCC[Te]CCCCCCCCCCC/C=C/I 1

Tell me whether Ratio is at least 3 here: O=C(O)CCCCCCCCCCC[Te]CCC/C=C/I -1

Tell me whether Ratio is at least 3 here: O=C(O)CCCCC[Te]CCCCCCCCC/C=C/I 1

Tell me whether Ratio is at least 3 here: O=C(O)CCCCCCC[Te]CCCCCCC/C=C/I 1

Tell me whether Ratio is at least 3 here: O=C(O)CCCCCCCCC[Te]CCCCC/C=C/I -1

----------
Can you tell me Ratio for the items I'm about to list?
- EXPERIMENT_NOTES: Ratio of heart to liver uptake after 30 min was determined in female Fischer rats after [125I]-labeled compound complexed with bovine serum albumin was injected intravenously
- Format: functional
Lab note: record the figure alone, no unit after it.

For record O=C(O)CCCCCCCCCCC[Te]CCC/C=C/I the listed Ratio is 0.29

For record O=C(O)CCCCCCC[Te]CCCCCCC/C=C/I the listed Ratio is 0.66

For record O=C(O)CCCCC[Te]CCCCCCCCC/C=C/I the listed Ratio is 0.49

For record O=C(O)CCC[Te]CCCCCCCCCCC/C=C/I the listed Ratio is 0.84

For record O=C(O)CCCCCCCCC[Te]CCCCC/C=C/I the listed Ratio is 0.47

----------
- EXPERIMENT_NOTES: Ratio of heart to lungs uptake after 30 min was determined in female Fischer rats after [125I]-labeled compound complexed with bovine serum albumin was injected intravenously
- Type: functional
Lab note: anything with Ratio at or over 2 counts as YES; the rest go in NO.

Tell me whether Ratio is at least 2 here: O=C(O)CCCCCCCCCCC[Te]CCC/C=C/I NO

Tell me whether Ratio is at least 2 here: O=C(O)CCC[Te]CCCCCCCCCCC/C=C/I YES

Tell me whether Ratio is at least 2 here: O=C(O)CCCCCCCCC[Te]CCCCC/C=C/I NO

Tell me whether Ratio is at least 2 here: O=C(O)CCCCCCC[Te]CCCCCCC/C=C/I YES

Tell me whether Ratio is at least 2 here: O=C(O)CCCCC[Te]CCCCCCCCC/C=C/I YES

----------
Can you tell me Ratio for the items I'm about to list?
- EXPERIMENT_NOTES: Ratio of heart to liver uptake after 120 min was determined in female Fischer rats after [125I]-labeled compound complexed with bovine serum albumin was injected intravenously
- Type: functional
Lab note: record the figure alone, no unit after it.

For record O=C(O)CCCCC[Te]CCCCCCCCC/C=C/I the listed Ratio is 0.59

For record O=C(O)CCCCCCCCC[Te]CCCCC/C=C/I the listed Ratio is 1.1

For record O=C(O)CCCCCCC[Te]CCCCCCC/C=C/I the listed Ratio is 0.84

For record O=C(O)CCCCCCCCCCC[Te]CCC/C=C/I the listed Ratio is 0.42

For record O=C(O)CCC[Te]CCCCCCCCCCC/C=C/I the listed Ratio is 0.74
